Entry source: patent US20120178682A1

- measurement target: D-VEGF
- assay details: SPR affinity measurements of GB1 peptidic compounds on immobilized D-VEGF
- Type: binding
- details: Table 1; target D-VEGF
assay metric: pKd
Reminder that pKd is minus the log10 of a molar concentration.

The substance E01: pre-affinity matured parent D-VEGF binding GB1 clone, SEQ ID NO:79 (TYKLILNGKTLKGETTTEAVDVYDAFDVFFVYAASNFSDFDDWTYDDATKTFTVTE) [Clone E01] , when measured on D-VEGF, yielded pKd of 7.87
